pIC50: −log10 of the molar value.
Let's go through some pIC50 measurements on human ACSS2 protein (Homo sapiens (Human), UniProt Q9NR19) together.
Sequence (Q9NR19 whole entry): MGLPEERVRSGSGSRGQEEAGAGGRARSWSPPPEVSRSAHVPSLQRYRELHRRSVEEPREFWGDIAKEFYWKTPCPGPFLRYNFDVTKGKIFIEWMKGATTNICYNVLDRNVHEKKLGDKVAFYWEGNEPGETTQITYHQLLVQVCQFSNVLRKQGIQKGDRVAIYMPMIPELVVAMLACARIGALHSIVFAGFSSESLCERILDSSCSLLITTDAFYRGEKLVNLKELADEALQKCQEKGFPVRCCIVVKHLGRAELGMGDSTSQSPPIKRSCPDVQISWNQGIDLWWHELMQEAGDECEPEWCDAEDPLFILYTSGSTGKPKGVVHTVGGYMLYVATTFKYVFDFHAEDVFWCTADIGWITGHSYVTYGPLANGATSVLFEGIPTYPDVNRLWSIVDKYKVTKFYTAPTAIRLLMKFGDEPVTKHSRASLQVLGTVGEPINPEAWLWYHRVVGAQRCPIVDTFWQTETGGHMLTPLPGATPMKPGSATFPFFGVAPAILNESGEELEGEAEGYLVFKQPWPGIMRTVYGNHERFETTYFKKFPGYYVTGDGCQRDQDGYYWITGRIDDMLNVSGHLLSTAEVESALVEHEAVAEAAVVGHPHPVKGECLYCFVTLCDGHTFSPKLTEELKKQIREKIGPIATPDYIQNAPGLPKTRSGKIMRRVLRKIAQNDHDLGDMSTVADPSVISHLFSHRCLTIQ

>  <Molecule>
Cc1oc(-c2ccc3cc[nH]c3c2)nc1C(=O)Nc1cccc(C(C)(F)F)c1

>  <pIC50>
< 7.00

$$$$
>  <Molecule>
CC1=NN(c2ccc(OC(F)F)cc2)C(=O)C1(C)NC(=O)c1cccc(C(C)(F)F)c1 (stereo not shown)

>  <pIC50>
< 7.00

$$$$
>  <Molecule>
Cc1nn(-c2ccc(OC(F)F)cc2)c(C2CCCC2)c1C(=O)Nc1cccc(C(C)(F)F)c1

>  <pIC50>
< 7.00

$$$$
>  <Molecule>
CCCc1cc(N2N=C(C)C(C(=O)Nc3cccc(C(F)(F)CC)c3)C2=O)cc(-c2ccccc2)c1OC (stereo not shown)

>  <pIC50>
7.00 to 9.00

$$$$
